Target: T1, PUF4 RNA-binding domain (Saccharomyces cerevisiae, UniProt P25339 537-888)
T1 sequence: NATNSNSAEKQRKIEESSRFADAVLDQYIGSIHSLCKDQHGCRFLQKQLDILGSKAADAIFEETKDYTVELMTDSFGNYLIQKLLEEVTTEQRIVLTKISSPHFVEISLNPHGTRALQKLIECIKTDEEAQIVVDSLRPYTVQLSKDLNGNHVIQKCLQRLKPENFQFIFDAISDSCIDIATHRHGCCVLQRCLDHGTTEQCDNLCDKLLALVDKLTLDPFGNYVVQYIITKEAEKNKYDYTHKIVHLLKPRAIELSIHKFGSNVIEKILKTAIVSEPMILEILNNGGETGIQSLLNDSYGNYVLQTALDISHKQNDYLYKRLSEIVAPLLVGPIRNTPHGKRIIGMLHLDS
Assay: Mg; RNA-MaP; 20 mM Na-HEPES pH 7.4, 30 mM KOAc, 0.75 mM MgCl2, 0.1% Tween-20, 5% glycerol, 0.1 mg/mL BSA, 2 mM DTT; 25 C; 0.0125-409.6 nM protein
Conditions: tags: N-His6-TEV cleaved; C-SNAP kept, Cy3B-labelled; label: tethered on chip by stalled RNA polymerase
PARAMETER: Kd (nM)
Report only the number, with the unit nM understood.

Study these solved cases before continuing.
INSERT INTO results (binder, measured_value) VALUES
  ('UCUCUUUAUAUAUAUACAUCUCUU (ssRNA) [Id_ii_S1_P3E.3_K3.2_C3.2_[C-2T]_[T-1A]_H3.2_A3.1_F3.1_T3.2_[T9C]]', 384),
  ('Ie_S2_P4E.1_K4.1_C4.1_H4.1_[+1CCTCT]_A4.1_F4.1_T4.1 (ssRNA) RNA: UUUGAUUAAUAUGAUAUCGUUCUUUCUUCCUCUGUAUAUUAUUCUUUCUCGAUAUCAUAUUAAUCUUU', 0.166),
  ('UCUCUUUGUAACCCUCUCUU (ssRNA) [Ic_S1_P3E.1_K3.1_C3.1_H3.1_A3.1_[T5A]_[A6C]_F3.1_[T7C]_[A8C]_T3.1]', 975),
  ('Id_ii_S2_P3E.2_K3.1_C3.2_[C-2T]_[T-1A]_H3.1_A3.1_F3.1_T3.2_[A10C] (ssRNA) RNA: UUUGAUUAAUAUGAUAUCGUUCUUUCUUAUGUAUAUAUCUUCUUUCUCGAUAUCAUAUUAAUCUUU', 6.09);

Turning now to a further binder:
Query Kd for UCUCUUUGUAUCUUUUCUCUU (ssRNA) [Ib_S1_P4E.1_K4.1_C4.1_H4.1_A4.1_[A6C]_F4.1_[A9T]_T4.1]
20.9
